Value source: patent US11685714B2

// reported IC50 for each item listed
Test system: SK-HEP-1: human liver cell cancer line
test_description: MTT assay on SK-HEP-1
Assay type: cell-based
condition: SK-HEP1, 96 h, growth inhibition, 96 h incubation

molecule | measurement_target | IC50 [nM]
CC(C)(C)[C@H](c1cc(-c2cc(F)ccc2F)cn1Cc1ccccc1)N(CC[C@H](N)C(=O)NCCNC(=O)CNC(=O)C(CC(=O)O)SC[C@H](N)C(=O)O)C(=O)CO (some centres unmarked) [Example M27] | SK-HEP-1: human liver cell cancer line | 89
CC(C)(C)[C@H](c1cc(-c2cc(F)ccc2F)cn1Cc1ccccc1)N(CC[C@H](N)C(=O)NCCOCCN1C(=O)CC(SC[C@H](N)C(=O)O)C1=O)C(=O)CO (some centres unmarked) | SK-HEP-1: human liver cell cancer line | 34.5
CC(C)(C)[C@H](c1cc(-c2cc(F)ccc2F)cn1Cc1ccccc1)N(CC[C@H](N)C(=O)NCCNC(=O)CNC(=O)CC(SC[C@H](N)C(=O)O)C(=O)O)C(=O)CO (single isomer, unassigned) [Example M13] | SK-HEP-1: human liver cell cancer line | 68.1
CNC(=O)[C@H](CCN(C(=O)CO)[C@@H](c1cc(-c2cc(F)ccc2F)cn1Cc1ccccc1)C(C)(C)C)NC(=O)[C@H](CC(N)=O)NC(=O)[C@H](C)NC(=O)[C@H](C)NC(=O)Cc1ccncc1 [Example R3r-LLL, reference compound] | SK-HEP-1: human liver cell cancer line | 232
CC(C)(C)[C@H](c1cc(-c2cc(F)ccc2F)cn1Cc1ccccc1)N(CC[C@H](N)C(=O)NCCC(=O)N[C@H](CCC(=O)O)C(=O)O)C(=O)CO | SK-HEP-1: human liver cell cancer line | 57.3
